# target.entity: T1, mTfR-1 S225A on Expi293 cells (mouse, UniProt Q62351 1-763)
# T1 construct: whole, on cells
# assay.protocol: FACS, transfected Expi293 cells
measurement.kind: % double-positive cells vs WT (%)
Express your answer in %, writing the number without its unit.

Here's what some known entries look like.
Q: Field request: % double-positive cells vs WT | item: 8D3 antibody (anti-mouse TfR-1 control; 8D3-hFc formatted antibody) (antibody, V domains shown) VH: EVQLVESGGGLVQPGNSLTLSCVASGFTFSNYGMHWIRQAPKKGLEWIAMIYYDSSKMNYADTVKGRFTISRDNSKNTLYLEMNSLRSEDTAMYYCAVPTSHYVVDVWGQGVSVTVSS VL: DIQMTQSPASLSASLEEIVTITCQASQDIGNWLAWYQQKPGKSPQLLIYGATSLADGVPSRFSGSRSGTQFSLKISRVQVEDIGIYYCLQAYNTPWTFGGGTKLELK
Ans: 64

Q: What do you have for Clone C variant 18 VNAR-hFc (Fc fusion, not shown: a dimerising Fc or GST, also called Clone C v18; Clone C var; 18) ARVDQTPQTITKETGESLTINCVLRDSNCALSSTYWYRKKSGSTNEENISKGGRYVETVNSGSKSFSLRINDLTVEDSGTYRCNVVQYPQYPNYFWCDVYGDGTAVTVN ?
Ans: 163

Q: What do you have for Clone C variant 13 VNAR-hFc (Fc fusion, not shown: a dimerising Fc or GST, also called Clone C v13; Clone C var; 13) ARVDQTPQTITKETGESLTINCVLRDSNCALSSTYWYRKKSGSTNEENISKGGRYVETVNSGSKSFSLRINDLTVEDSGTYRCNVVQYPQQDNYFWCDVYGDGTAVTVN ?
Ans: 73

# context switch: different binder, same % double-positive cells vs WT
Q: Field request: % double-positive cells vs WT | item: Clone C VNAR-hFc fusion (Fc fusion, not shown: a dimerising Fc or GST, bivalent VNAR-Fc; also called Clone C-hFc) ARVDQTPQTITKETGESLTINCVLRDSNCALSSTYWYRKKSGSTNEENISKGGRYVETVNSGSKSFSLRINDLTVEDSGTYRCNVVQYPSYNNYFWCDVYGDGTAVTVN
Ans: 180
